# system tested: Bcl-xL, Q07817
# Sequence (Q07817 1-209): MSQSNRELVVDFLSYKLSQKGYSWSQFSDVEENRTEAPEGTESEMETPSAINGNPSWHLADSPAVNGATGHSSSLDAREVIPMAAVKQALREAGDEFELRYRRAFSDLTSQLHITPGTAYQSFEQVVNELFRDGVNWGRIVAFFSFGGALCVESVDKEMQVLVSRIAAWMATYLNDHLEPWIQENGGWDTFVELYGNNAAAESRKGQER
# experiment summary: peptide SPOT array, c-Myc-tagged receptor at 1 uM or 100 nM, anti-c-Myc-Cy3
reported metric: SPOT signal as a fraction of Bim BH3's signal on the same receptor and array

binder | endpoint result
SALETQVAAAVQALADDYLAQLSLEP [TRO] | 0.01

P. LTETSLISGNLHRIGDITSCSVLWLN [FBXW5]
Q. KKRADSVANKLGSFGKTLGSKLKKNM [OTUD7B]
# input Determine, for P and Q , which has the greater value of SPOT signal as a fraction of Bim BH3's signal on the same receptor and array. Indicate your choice by writing its label.
# output Q

A. RDPQGWVAGNLSARGDGAAGFTLPGF [MST1R]
B. VLELHPGAQRLHIGLDEVYYLGEGEA [HEXDC]
# input Consider entries A and B . Which has the numerically lower SPOT signal as a fraction of Bim BH3's signal on the same receptor and array? Identify your pick by its label.
# output A
(A: 0.02, B: 0.06)

1. SVRYYPSGDADASGSDDATCRLYDLR [GNB5]
2. KEFLALASSSLLKIGQETDKTTTRNR [NCKAP1]
# input Could you tell me which of 1 and 2 has the lower SPOT signal as a fraction of Bim BH3's signal on the same receptor and array reading? Field: selected label. Fill in the label of the entry you choose.
# output 1
(1: 0.01, 2: 0.26)
